Item-by-item account of largest response in the series, negative = inhibition
Tgt: 4'-phosphopantetheinyl transferase ffp (Bacillus subtilis) (UniProt Q9F4F7)
Protocol Details: qHTS Assay for Inhibitors of Bacillus subtilis Sfp phosphopantetheinyl transferase (PPTase);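 also: the enzyme is Sfp with the accession as filed and its product quenches rhodamine fluorescence; 0% = enzyme reaction without inhibitor and -100% = no enzyme wells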
Experimental Parameters: Biochemical Sfp PPTase activity
Out of some 310,000 compounds screened, about 11,000 (3.5%) were called active. Not shown: some 4% with an inconclusive outcome. What follows is part of a selection rich in actives, with near analogues and random picks from the rest.
Measured Quantity: largest response in the series, negative = inhibition (%)

>  <Compound>
O=c1[nH]c2c(c(=O)n1Cc1ccccc1)CCC2

>  <Reported Result>
4.99

$$$$
>  <Compound>
CCC1OC(c2ccc([N+](=O)[O-])cc2)=Nc2ccccc21 (stereo not given)

>  <Reported Result>
-5.21

$$$$
>  <Compound>
O=C(NCC(=O)N1CCN(c2ccccc2O)CC1)c1ccc2ccccc2c1

>  <Reported Result>
2.02

$$$$
>  <Compound>
CCOc1ccccc1Nc1ccc2nonc2c1[N+](=O)[O-]

>  <Reported Result>
1.09

$$$$
>  <Compound>
CCOC(=O)N1CCN(S(=O)(=O)N2CCCC(C(=O)NCCCN3CCC(C)CC3)C2)CC1 (stereo not given)

>  <Reported Result>
6.69

$$$$
>  <Compound>
COc1ccc(-c2nc3ccccc3c(=O)n2CCc2ccc(O)cc2)cc1

>  <Reported Result>
-0.523

$$$$
>  <Compound>
CC1(C)CC(=O)C=C(Nc2ccccc2)C1

>  <Reported Result>
25.1

$$$$
>  <Compound>
COc1ccc(C2/C(=C(/O)c3ccc(OC(C)C)cc3)C(=O)C(=O)N2CCCN2CCOCC2)cc1 (stereo not given)

>  <Reported Result>
-22.3

$$$$
>  <Compound>
O=C(O)CCCn1cc(NC(=O)COc2cccc(Cl)c2)cn1

>  <Reported Result>
12.9

$$$$
>  <Compound>
Cc1ccc(NS(=O)(=O)c2ccc(-c3ccc(=O)[nH]n3)o2)c(C)c1

>  <Reported Result>
23.5

$$$$
>  <Compound>
COc1cccc(-n2c(=S)sc3c(=O)n(-c4ccccc4OC)c(SCC4OCCO4)nc32)c1

>  <Reported Result>
-1.29

$$$$
>  <Compound>
Cc1ccc(C(CNC(=O)Nc2ccccc2)N2CCN(C)CC2)cc1 (stereo not given)

>  <Reported Result>
6.82

$$$$
>  <Compound>
CN(C)/C=C1/C(=O)Nc2ccccc21

>  <Reported Result>
-6.73

$$$$
>  <Compound>
COc1ccc(CCNC(=O)C(=O)NCC2OCCN2S(=O)(=O)c2ccc(OC)c(C)c2)cc1 (stereo not given)

>  <Reported Result>
8.83

$$$$
>  <Compound>
Cc1ccc(C(=O)NCC(=O)OCC(=O)NC2CCCCCCC2)cc1

>  <Reported Result>
15.7

$$$$
>  <Compound>
CC(=O)c1ccc(-c2ccc(Cn3c(C)nc4cc(N)c(C)nc43)cc2)cc1

>  <Reported Result>
5.24

$$$$
>  <Compound>
COc1ccc(N(CC(=O)NCc2ccc(F)cc2)C(=O)CCC(=O)Nc2nccs2)cc1

>  <Reported Result>
-11.5

$$$$
>  <Compound>
COC(=O)NNC1=CC(=O)CC(C)(C)C1

>  <Reported Result>
-3.96

$$$$
>  <Compound>
CC1CC(C)CN(C(=O)C2CC(=O)N(c3ccc(F)cc3)C2)C1 (stereo not given)

>  <Reported Result>
0.935

$$$$
>  <Compound>
O=C(c1ccco1)N1CCN(C(=O)c2cc(-c3ccccc3F)no2)CC1

>  <Reported Result>
1.68

$$$$
>  <Compound>
Cc1ccc(C(=O)Nc2sc(Cc3ccc4c(c3)OCO4)c(C)c2C(N)=O)cc1

>  <Reported Result>
-3.41

$$$$
>  <Compound>
COc1ccc(-c2c(C#Cc3ccccc3)c3ccccc3n2C)cc1

>  <Reported Result>
-20.7

$$$$
>  <Compound>
O=C(c1ccc(Br)o1)N1CCN(CCOc2ccccc2)CC1

>  <Reported Result>
15.3

$$$$
>  <Compound>
COc1ccc(NC(=O)CCCN2C(=O)C(c3ccccc3)Oc3cccnc32)cc1 (stereo not given)

>  <Reported Result>
1.64

$$$$
>  <Compound>
CC(=O)c1ccc(NC(=O)c2ccc(-n3cncn3)c([N+](=O)[O-])c2)cc1

>  <Reported Result>
-0.369

$$$$
>  <Compound>
CCCCOc1ccc(C(C)(O)CCN2CCOCC2)cc1 (stereo not given)

>  <Reported Result>
6.22

$$$$
>  <Compound>
N#Cc1ccc(/C=C2\CCn3c2nc2cc(C(=O)O)ccc2c3=O)cc1

>  <Reported Result>
31.1

$$$$
>  <Compound>
CCOC(=O)C1(Cc2cccc(OC)c2)CCN(C(C)COC)CC1 (stereo not given)

>  <Reported Result>
2.4

$$$$
>  <Compound>
CCCOc1ccc(C2=CSC3=NCCN23)cc1Cl

>  <Reported Result>
16

$$$$
>  <Compound>
CCOc1cc2[nH]c(=S)n(CCN3CCCCC3C)c(=O)c2cc1OCC (stereo not given)

>  <Reported Result>
-4.39

$$$$
>  <Compound>
CCc1ccc2c(c1)C(c1ccc([N+](=O)[O-])cc1)=NNC(c1ccccc1)=N2

>  <Reported Result>
-18

$$$$
>  <Compound>
CCc1ccnc(NC(=O)Nc2ccc(OCc3ccccc3)cc2)c1

>  <Reported Result>
-0.979

$$$$
>  <Compound>
Cc1ccc(NC(=O)Cn2nnc(C(=O)NCc3ccco3)c2N)c(C)c1

>  <Reported Result>
-4.99

$$$$
>  <Compound>
Cc1nc2nc(C)c(NS(=O)(=O)c3ccc(C(C)(C)C)cc3)c(=O)n2[nH]1

>  <Reported Result>
14.4

$$$$
>  <Compound>
CCOc1ccccc1NC(=O)Cc1cccs1

>  <Reported Result>
13.9

$$$$
>  <Compound>
Cc1ccc(C(=O)NCCNC(=O)c2ccccc2)cc1

>  <Reported Result>
10.8

$$$$
>  <Compound>
CC(=O)Nc1ccc(S(=O)(=O)N2N=NC3C2C2CC4C3(CN(C(=O)OC(C)(C)C)S4(=O)=O)O2)cc1 (stereo not given)

>  <Reported Result>
11.6

$$$$
>  <Compound>
Cc1cccc(C(=O)Nc2ccc(C(=O)N/N=C/c3cccc(C)n3)cc2)c1

>  <Reported Result>
-3.6

$$$$
>  <Compound>
COC1=C(N2CCOCC2)C(=O)c2ccccc2C1=O

>  <Reported Result>
-22.9

$$$$
>  <Compound>
CN1CCN(C(=O)c2ccccc2NC(=O)COc2ccccc2Cl)CC1

>  <Reported Result>
18.2

$$$$
